// data source = ChEMBL document CHEMBL1137373

# Measured on: Amyloid-beta precursor protein (Homo sapiens, UniProt P05067)
# Sequence (P05067 whole entry): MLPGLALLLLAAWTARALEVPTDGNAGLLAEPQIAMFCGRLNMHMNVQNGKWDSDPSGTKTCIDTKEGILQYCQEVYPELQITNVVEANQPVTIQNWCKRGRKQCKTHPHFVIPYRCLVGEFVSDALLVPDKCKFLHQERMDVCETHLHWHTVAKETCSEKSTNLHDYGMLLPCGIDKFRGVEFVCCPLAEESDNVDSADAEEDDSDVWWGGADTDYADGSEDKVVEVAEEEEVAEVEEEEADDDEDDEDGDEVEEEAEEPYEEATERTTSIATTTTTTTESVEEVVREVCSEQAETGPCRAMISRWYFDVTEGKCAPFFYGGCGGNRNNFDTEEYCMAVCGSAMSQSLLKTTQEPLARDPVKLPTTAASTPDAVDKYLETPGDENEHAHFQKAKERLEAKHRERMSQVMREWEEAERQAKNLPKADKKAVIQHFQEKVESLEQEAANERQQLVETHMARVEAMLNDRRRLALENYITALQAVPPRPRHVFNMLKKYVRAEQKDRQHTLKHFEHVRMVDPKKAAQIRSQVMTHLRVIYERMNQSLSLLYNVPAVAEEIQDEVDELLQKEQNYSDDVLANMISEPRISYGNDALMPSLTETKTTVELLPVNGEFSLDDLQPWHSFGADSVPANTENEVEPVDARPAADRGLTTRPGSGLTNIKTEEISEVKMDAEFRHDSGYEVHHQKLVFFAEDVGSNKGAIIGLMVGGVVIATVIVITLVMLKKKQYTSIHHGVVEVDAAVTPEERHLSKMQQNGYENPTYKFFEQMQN
# Assay: Displacement of [125I]IMPY from beta amyloid protein 40
Listed next: entries and their corresponding pKi.
pKi is a log-scale quantity: -log10 of the concentration expressed in molar.

smiles_structure=COc1cc(/C=C/C(O)=C/C(C)=O)ccc1OCCCF assay_endpoint=pKi meas_value=6.50
smiles_structure=COc1cc(/C=C/C(C)=O)cc(I)c1O assay_endpoint=pKi meas_value=7.44
smiles_structure=COc1cc(/C=C/C(C)=O)ccc1OCCCF assay_endpoint=pKi meas_value=6.08

Ask: State the recorded pKi for this entry: `COc1cc(/C=C/C(C)=O)ccc1OCCF`
Reply: 6.63

Ask: Please report the recorded pKi for `COc1cc(/C=C/C(O)=C/C(C)=O)ccc1OCCF` .
Reply: 6.02

Ask: pKi for `COc1cc(/C=C/C(O)=C/C(C)=O)cc(I)c1O` ?
Reply: 7.60
